assay: Acute toxicity in white mice after oral application of a single dose; format: in vivo; settings: mouse, in vivo, observation time 14 days
Reported LD50 at 336 h values are given for each entry in this list.
Experimental Endpoint: LD50 at 336 h

Compound: COc1ccc(-c2cc(N3CCCCC3)nc3[nH]nc(N)c23)cc1
Measurement: > 1500 mg/kg
--
Compound: Nc1n[nH]c2nc(N3CCCCC3)cc(-c3ccccc3)c12
Measurement: > 250 mg/kg
--
Compound: Nc1n[nH]c2nc(N3CCCCCC3)cc(-c3ccccc3)c12
Measurement: > 5000 mg/kg
--
Compound: CC1CCCN(c2cc(-c3ccccc3)c3c(N)n[nH]c3n2)C1 (centres unmarked)
Measurement: > 250 mg/kg
--
Compound: Nc1n[nH]c2nc(N3CCOCC3)cc(-c3ccccc3)c12
Measurement: > 250 mg/kg
--
Compound: CCN(CC)c1cc(-c2ccccc2)c2c(N)n[nH]c2n1
Measurement: > 1500 mg/kg
--
Compound: Nc1n[nH]c2nc(N3CCSCC3)cc(-c3ccccc3)c12
Measurement: > 250 mg/kg
--
Compound: Nc1cc(-c2ccccc2)c2c(N)n[nH]c2n1 [I, reference compound]
Measurement: > 1500 mg/kg

----------
tested on: white mice; test: Acute toxicity in white mice after oral application of a single dose; format: in vivo; details: observation time 14 days, at the dose given in the same line
Experimental Endpoint: animals died (mortality in acute toxicity test)

Structure As Smiles: Nc1n[nH]c2nc(N3CCSCC3)cc(-c3ccccc3)c12
Measurement: 0 out of 10
//
Structure As Smiles: COc1ccc(-c2cc(N3CCCCC3)nc3[nH]nc(N)c23)cc1
Measurement: 0 out of 10
//
Structure As Smiles: Nc1n[nH]c2nc(N3CCCCCC3)cc(-c3ccccc3)c12
Measurement: 3 out of 10

Hello, the source for this data is patent US4182887A, in case you need it.
